For each of the molecules below, state its Kd.
biological target: GDP-bound KRAS wild-type protein (Homo sapiens, UniProt P01116); assay: Binding to KRAS by surface plasmon resonance (SPR), Single Cycle Kinetics; settings: SPR Single Cycle Kinetics, GDP-bound KRAS wild-type protein, 1:1 binding model; read-out: KRAS KD
Sequence (P01116 whole entry): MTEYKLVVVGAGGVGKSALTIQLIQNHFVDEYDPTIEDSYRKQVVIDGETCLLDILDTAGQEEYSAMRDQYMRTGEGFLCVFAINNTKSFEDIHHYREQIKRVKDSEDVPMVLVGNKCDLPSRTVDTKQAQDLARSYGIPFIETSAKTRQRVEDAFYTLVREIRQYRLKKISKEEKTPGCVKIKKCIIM
One number for each entry, in nM.

Sample records with Kd:
- CCC(CC)[C@H]1C(=O)N(C)[C@H](C(=O)N(C)C)CC(=O)N(C)[C@@H](COC)C(=O)N[C@@H]([C@@H](C)CC)C(=O)N(C)CC(=O)N(C)[C@H]2C/C=C\CCN(C2=O)[C@@H](Cc2ccc(C(F)(F)F)cc2)C(=O)N(C)CC(=O)N[C@@H](CCc2cc(F)c(C(F)(F)F)c(F)c2)C(=O)N2CCOC[C@H]2C(=O)NC2(CC(C)(C)C2)C(=O)N1C: 1.4
- CCC[C@H]1C(=O)N[C@@H]([C@@H](C)CC)C(=O)N2C[C@@H](OC)C[C@H]2C(=O)N(C)[C@H]2C/C=C\CCN(C2=O)[C@@H](Cc2ccc(C)cc2)C(=O)N(C)CC(=O)N[C@@H](CCc2ccc(C(F)(F)F)c(OC)c2)C(=O)N2C[C@H](OCC)C[C@H]2C(=O)NC2(CC(C)(C)C2)C(=O)N(C)[C@@H](C2CCCC2)C(=O)N(C)[C@H](C(=O)N(C)C)CC(=O)N1C: 0.3

Please examine the following record next.
Bench note, GDP-bound KRAS wild-type protein (Homo sapiens, UniProt P01116): `CCC[C@H]1C(=O)N[C@@H]([C@@H](C)CC)C(=O)N(C)CC(=O)N(C)[C@H]2C/C=C\CCN(C2=O)[C@@H](Cc2ccc(C(F)(F)F)cc2)C(=O)N(C)CC(=O)N[C@@H](CCc2ccc3sc(F)c(C)c3c2)C(=O)N2C[C@H](OCC)C[C@H]2C(=O)NC2(CC(C)(C)C2)C(=O)N(C)[C@@H](C2CCCC2)C(=O)N(C)[C@H](C(=O)N(C)C)CC(=O)N1C` , Kd reads 0.055
